experimental-protocol: clinical
Parameters: species or system children with CPP
condition: human, in vivo, sc, 45 mg
measured-parameter: level at 672 h (ng/mL)
Dear colleague, please return just the value in ng/mL, with no unit written.

Given the entry CCNC(=O)[C@@H]1CCCN1C(=O)[C@H](CCCNC(=N)N)NC(=O)[C@H](CC(C)C)NC(=O)[C@@H](CC(C)C)NC(=O)[C@H](Cc1ccc(O)cc1)NC(=O)[C@H](CO)NC(=O)[C@H](Cc1c[nH]c2ccccc12)NC(=O)[C@H](Cc1c[nH]cn1)NC(=O)[C@@H]1CCC(=O)N1 [leuprolide] , report its measured level at 672 h.
0.63

###

experimental-protocol: clinical
Parameters: species or system children with CPP
condition: human, in vivo, sc, 45 mg, AUC, burst phase
measured-parameter: AUC (µg·h/mL)
Dear colleague, please return just the value in µg·h/mL, with no unit written.

Given the entry CCNC(=O)[C@@H]1CCCN1C(=O)[C@H](CCCNC(=N)N)NC(=O)[C@H](CC(C)C)NC(=O)[C@@H](CC(C)C)NC(=O)[C@H](Cc1ccc(O)cc1)NC(=O)[C@H](CO)NC(=O)[C@H](Cc1c[nH]c2ccccc12)NC(=O)[C@H](Cc1c[nH]cn1)NC(=O)[C@@H]1CCC(=O)N1 [leuprolide] , report its measured AUC.
0.938

###

experimental-protocol: clinical
Parameters: species or system children with CPP
condition: human, in vivo, sc, 45 mg, T max, burst phase (time at which the Cmax is observed)
measured-parameter: Tmax (h)
Dear colleague, please return just the value in h, with no unit written.

Given the entry CCNC(=O)[C@@H]1CCCN1C(=O)[C@H](CCCNC(=N)N)NC(=O)[C@H](CC(C)C)NC(=O)[C@@H](CC(C)C)NC(=O)[C@H](Cc1ccc(O)cc1)NC(=O)[C@H](CO)NC(=O)[C@H](Cc1c[nH]c2ccccc12)NC(=O)[C@H](Cc1c[nH]cn1)NC(=O)[C@@H]1CCC(=O)N1 [leuprolide] , report its measured Tmax.
3.7

###

experimental-protocol: clinical
Design: species or system children with CPP
condition: human, in vivo, sc, 45 mg, Time after injection at which leuprolide levels peaked
Description: All samples were processed by a central laboratory (Syneos Health [formerly […] Health Clinique Inc.], Canada). A validated bioanalytical LC-MS/MS method with an LLOD of 0.025 ng/mL was used to measure serum leuprolide concentrations.
measured-parameter: Tmax (h)
Dear colleague, please return just the value in h, with no unit written.

Given the entry CCNC(=O)[C@@H]1CCCN1C(=O)[C@H](CCCNC(=N)N)NC(=O)[C@H](CC(C)C)NC(=O)[C@@H](CC(C)C)NC(=O)[C@H](Cc1ccc(O)cc1)NC(=O)[C@H](CO)NC(=O)[C@H](Cc1c[nH]c2ccccc12)NC(=O)[C@H](Cc1c[nH]cn1)NC(=O)[C@@H]1CCC(=O)N1 [leuprolide] , report its measured Tmax.
4

###

experimental-protocol: clinical
Design: species or system children with CPP
condition: human, in vivo, sc, 45 mg
measured-parameter: Cmax (ng/mL)
Dear colleague, please return just the value in ng/mL, with no unit written.

Given the entry CCNC(=O)[C@@H]1CCCN1C(=O)[C@H](CCCNC(=N)N)NC(=O)[C@H](CC(C)C)NC(=O)[C@@H](CC(C)C)NC(=O)[C@H](Cc1ccc(O)cc1)NC(=O)[C@H](CO)NC(=O)[C@H](Cc1c[nH]c2ccccc12)NC(=O)[C@H](Cc1c[nH]cn1)NC(=O)[C@@H]1CCC(=O)N1 [leuprolide] , report its measured Cmax.
212
